- MEASUREMENT_CONTEXT: in n-butanol, 333.15 K

{"columns": ["SMILES_REPR", "solubility (mole fraction)"],
 "data": [
  ["CC(C)C[C@H](CN)CC(=O)O", 0.00793]
]}

###

- MEASUREMENT_CONTEXT: in isopropanol, 318.15 K

{"columns": ["SMILES_REPR", "solubility (mole fraction)"],
 "data": [
  ["CC(C)C[C@H](CN)CC(=O)O", 0.000419]
]}

###

- MEASUREMENT_CONTEXT: in ethyl acetate, 298.15 K
METRIC: solubility (mole fraction)

{"columns": ["SMILES_REPR", "MEASURED_VALUE"],
 "data": [
  ["CC(C)C[C@H](CN)CC(=O)O", 0.00331]
]}

Reference source for all entries: BigSolDB 2.1
